# measurementTarget: SCD5 (Homo sapiens, UniProt Q86SK9)
# Construct: host or cells: S. cerevisiae ole1Δ strain (W303 pdr1Δ pdr3Δ background), plasmid pRS316 with TDH3 promoter and CYC1 terminator
# protocol: Growth inhibition of humanized yeast strain expressing SCD5 as sole desaturase
# Assay type: cell-based
# statedConditions: humanized yeast strain, 40 h
pIC50: −log10 of the molar value.
Rule: pIC50 of 6 or more gives satisfied; anything lower gives not satisfied.

Threshold query (pIC50 >= 6) on `COC(=O)N1CCC(c2noc(-c3ccc4cnn(C(CO)CO)c4c3)n2)CC1`
not satisfied

Threshold query (pIC50 >= 6) on `CC(C)(C)OC(=O)N1CCC(c2noc(-c3ccc(OC4COC4)c(NC4COC4)c3)n2)CC1`
satisfied

Threshold query (pIC50 >= 6) on O=C(N1CCC(c2noc(-c3ccnc(C4CCOC4)c3)n2)CC1)C1(C(F)(F)F)CCC1 (centres unmarked)
satisfied

Threshold query (pIC50 >= 6) on `O=C(N1CCN(c2noc(-c3ccnc(Cl)c3)n2)CC1)C1(F)CC1`
not satisfied

Threshold query (pIC50 >= 6) on `COC(=O)N1CCN(c2noc(-c3ccc4cnn(C5COC5)c4c3)n2)CC(F)(F)C1`
satisfied

Threshold query (pIC50 >= 6) on `CC(C)C(=O)N1CCC(c2noc(-c3ccnc(Cl)c3)n2)CC1`
not satisfied

Threshold query (pIC50 >= 6) on `COC(=O)N1CCC(c2noc(-c3ccccc3N3CCOCC3)n2)CC1`
not satisfied

* * *

Consider the following compounds; for each one, report its IC50.
# measurementTarget: Ole1 (Saccharomyces cerevisiae)
# Construct: expressed in transfected cells; host or cells: S. cerevisiae ole1Δ strain (W303 pdr1Δ pdr3Δ background), plasmid pRS316 with TDH3 promoter and CYC1 terminator
# Sequence (P21147 whole entry): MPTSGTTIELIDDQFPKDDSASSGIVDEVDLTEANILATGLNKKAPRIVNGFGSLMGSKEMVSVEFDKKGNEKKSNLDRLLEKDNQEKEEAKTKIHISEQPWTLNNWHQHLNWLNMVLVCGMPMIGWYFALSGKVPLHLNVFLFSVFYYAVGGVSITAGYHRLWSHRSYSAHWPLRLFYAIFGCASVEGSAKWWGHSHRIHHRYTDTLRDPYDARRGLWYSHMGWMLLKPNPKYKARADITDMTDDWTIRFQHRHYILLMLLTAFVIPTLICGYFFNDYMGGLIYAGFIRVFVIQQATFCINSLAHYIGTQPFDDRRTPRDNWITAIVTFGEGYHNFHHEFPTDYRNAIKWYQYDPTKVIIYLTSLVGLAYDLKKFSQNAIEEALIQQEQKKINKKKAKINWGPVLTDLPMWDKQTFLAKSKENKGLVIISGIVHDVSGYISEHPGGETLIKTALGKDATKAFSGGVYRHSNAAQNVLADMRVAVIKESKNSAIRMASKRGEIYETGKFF
# protocol: Growth inhibition of yeast strain expressing Ole1 as sole desaturase
# Format: cell-based
# statedConditions: yeast strain expressing Ole1 as sole desaturase

Please fill in: IC50 reported for `Cc1nn(C)c2cc(-c3noc(C4CCN(C(=O)c5ccc(Cl)cc5)CC4)n3)ccc12` = > 45 µM

Please fill in: IC50 reported for `Cc1nn(C)c2cc(-c3noc(C4CCN(C(=O)c5ccc(C(C)C)cc5)CC4)n3)ccc12` = > 45 µM

Please fill in: IC50 reported for Cc1nn(C)c2cc(-c3noc(C4CCN(C(=O)C5CC(=O)N(c6ccc(F)cc6)C5)CC4)n3)ccc12 (stereo not drawn) = > 45 µM

Please fill in: IC50 reported for CCOc1ccc(-c2noc(C3CCN(C(=O)C4CC(=O)N(c5ccccc5)C4)CC3)n2)nc1OC (stereo not drawn) = > 45 µM

Please fill in: IC50 reported for Cc1cccc(-c2noc(C3CCN(C(=O)C4CC(=O)N(c5ccc(C)c(C)c5)C4)CC3)n2)c1 (stereo not drawn) = 38.5 µM

Please fill in: IC50 reported for `COc1ccc(-c2noc(C3CCN(C(=O)CNC(=O)c4ccc(C)c(C)c4)CC3)n2)cc1OC` = > 45 µM

Please fill in: IC50 reported for Cc1nn(C)c2cc(-c3noc(N4CCN(C(=O)C5CC(=O)N(c6ccccc6)C5)CC4)n3)ccc12 (stereo not drawn) = > 45 µM

Please fill in: IC50 reported for `CCOc1ccc(-c2noc(C3CCN(C(=O)CN4Cc5ccc(F)cc5C4=O)CC3)n2)cc1OC` = > 45 µM

Please fill in: IC50 reported for `Cc1c2ccc(-c3noc(C4CCN(C(=O)CNC(=O)c5ccccc5)CC4)n3)cc2nn1C(C)C` = > 45 µM

Please fill in: IC50 reported for `CCOc1cnc(-c2noc(C3CCN(C(=O)CNC(=O)c4ccccc4)CC3)n2)nc1OC` = > 45 µM

Please fill in: IC50 reported for `Cc1nn(C)c2nc(-c3noc(C4CCN(C(=O)CN5Cc6ccccc6C5=O)CC4)n3)ccc12` = > 45 µM

Please fill in: IC50 reported for `CCOc1ccc(-c2noc(C3CCN(C(=O)CN4Cc5c(F)cccc5C4=O)CC3)n2)cc1OC` = > 45 µM

Please fill in: IC50 reported for `CCOc1ccc(-c2noc(C3CCN(C(=O)CN4Cc5ccccc5C4=O)CC3)n2)nc1OC` = > 45 µM

Please fill in: IC50 reported for `Cc1nn(C)c2cc(-c3noc(C4CCN(C(=O)c5ccccc5Cl)CC4)n3)ccc12` = > 45 µM

Please fill in: IC50 reported for CC(C)(CO)n1cc2ccc(-c3noc(C4CCN(C(=O)C5CC(=O)N(c6ccccc6)C5)CC4)n3)cc2n1 (stereo not drawn) = > 45 µM

* * *

# measurementTarget: SCD5 (Homo sapiens, UniProt Q86SK9)
# Construct: host or cells: S. cerevisiae ole1Δ strain (W303 pdr1Δ pdr3Δ background), plasmid pRS316 with TDH3 promoter and CYC1 terminator
# protocol: Growth inhibition of humanized yeast strain expressing SCD5 as sole desaturase
# Format: cell-based
# statedConditions: growth inhibition of humanized yeast strain expressing human SCD5
assayReadout: pIC50
Interpret pIC50 as the negative base-10 log of the concentration measured in mol/L.

Please fill in: pIC50 reported for CC(C)(C)OC(=O)N1CCC(c2nc(-c3ccc4cnn(C5CS(=O)(=O)C5)c4c3)no2)CC1 [Compound 690] = 6.88

Please fill in: pIC50 reported for CC1(CC(=O)N2CCN(c3nc(-c4ccc5cnn(C6COC6)c5c4)no3)CC2)CC1 [Compound 693] = 5.78

Please fill in: pIC50 reported for CC(C)(C)CC(=O)N1CCC(c2nc(-c3ccc4cn[nH]c4c3)no2)CC1 [Compound 732] = 4.50

* * *

Consider the following molecules; for each one, report its pIC50.
# measurementTarget: SCD1 (Homo sapiens)
# Construct: host or cells: S. cerevisiae ole1Δ strain (W303 pdr1Δ pdr3Δ background), plasmid pRS316 with TDH3 promoter and CYC1 terminator
# Sequence (O00767 1-359): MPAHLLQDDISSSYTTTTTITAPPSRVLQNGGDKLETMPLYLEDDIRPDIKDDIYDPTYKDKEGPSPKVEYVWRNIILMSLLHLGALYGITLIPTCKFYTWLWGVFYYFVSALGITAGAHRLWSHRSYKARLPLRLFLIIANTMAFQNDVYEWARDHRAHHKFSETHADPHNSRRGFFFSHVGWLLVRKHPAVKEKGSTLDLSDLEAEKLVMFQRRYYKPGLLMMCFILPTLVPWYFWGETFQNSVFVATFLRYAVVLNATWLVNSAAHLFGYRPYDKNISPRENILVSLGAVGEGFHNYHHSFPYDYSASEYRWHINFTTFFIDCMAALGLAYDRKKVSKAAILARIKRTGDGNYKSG
# protocol: Growth inhibition of humanized yeast strain expressing SCD1 as sole desaturase
# Assay type: cell-based
# statedConditions: humanized yeast strain expressing SCD1
pIC50: −log10 of the molar value.

Please fill in: pIC50 reported for O=C(C1CC(=O)N(c2cccc(Cl)c2)C1)N1CCC(c2nc(N3CCC4(CC3)COC4)no2)CC1 (stereo not shown) = < 4.35

Please fill in: pIC50 reported for `CCn1nc(C)c2ccc(-c3noc(C4CCN(C(=O)CNC(=O)c5ccccc5)CC4)n3)cc21` = ≤ 4.35

Please fill in: pIC50 reported for `Cc1nn(C)c2cc(-c3noc(C4CCN(C(=O)[C@@H]5CC(=O)N(c6cccc(C#N)c6)C5)CC4)n3)ccc12` = ≤ 4.35

Please fill in: pIC50 reported for Cn1c(=O)n(C)c2cc(-c3noc(C4CCN(C(=O)C5CC(=O)N(c6ccccc6)C5)CC4)n3)ccc21 (stereo not shown) = < 4.35

Please fill in: pIC50 reported for `O=C([C@H]1CC(=O)N(c2ccccc2)C1)N1CCC(c2nc(N3CC4(COC4)C3)no2)CC1` = ≤ 4.35

Please fill in: pIC50 reported for `COc1cc(OC)cc(-c2noc(C3CCN(C(=O)CNC(=O)c4ccccc4)CC3)n2)c1` = < 4.35

Please fill in: pIC50 reported for `Cc1nn(C)c2cc(-c3noc(N4CCN(C(=O)CNC(=O)c5ccccc5)CC4)n3)ccc12` = < 4.35

* * *

Consider the following molecules; for each one, report its IC50.
# measurementTarget: SCD5 (Homo sapiens, UniProt Q86SK9)
# Construct: host or cells: S. cerevisiae ole1Δ strain (W303 pdr1Δ pdr3Δ background), plasmid pRS316 with TDH3 promoter and CYC1 terminator
# Sequence (Q86SK9 1-330): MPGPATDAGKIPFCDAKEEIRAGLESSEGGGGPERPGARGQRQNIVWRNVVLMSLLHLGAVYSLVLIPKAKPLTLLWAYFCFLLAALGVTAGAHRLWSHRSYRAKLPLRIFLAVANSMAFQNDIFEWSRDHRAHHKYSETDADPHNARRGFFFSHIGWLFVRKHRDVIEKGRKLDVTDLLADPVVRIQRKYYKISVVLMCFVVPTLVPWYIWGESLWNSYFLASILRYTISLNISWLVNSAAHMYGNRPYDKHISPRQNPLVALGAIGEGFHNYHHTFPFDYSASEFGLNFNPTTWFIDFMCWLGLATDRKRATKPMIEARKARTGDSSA
# protocol: Growth inhibition of humanized yeast strain expressing SCD5 as sole desaturase
# Type: cell-based
# statedConditions: humanized yeast strain, 40 h
# Method: Strain oleΔ (yeast ole1 deletion mutant) was constructed by deleting OLE1 with NAT-MX6 in BY4741, amplifying the deletion cassette from the genomic DNA of the resulting strain with primers flanking the ORF by 1000 bp upstream and downstream, transforming the resulting deletion cassette into W303 pdr1Δ pdr3Δ, and plating transformants on YPD media containing G418 (200 μg/mL) and nourseothricin ([…]) with 0.01% TWEEN®-20 and 0.5 mM oleic and palmitoleic acids. […]
The answer is to be given in µM; state only the numeric part.

Please fill in: IC50 reported for `CC(C)n1nc(CO)c2ccc(-c3noc(C4CCN(C(=O)OC(C)(C)C)CC4)n3)cc21` = 4.8

Please fill in: IC50 reported for `COC(=O)N1CCC(c2nc(-c3ccc4cnc(C5COC5)n4c3)no2)CC1` = 13.1

Please fill in: IC50 reported for `CC(C)n1ncc2ccc(-c3noc(C4CCN(C(=O)C56CC(F)(C5)C6)CC4)n3)cc21` = 4.36

Please fill in: IC50 reported for `CC(C)n1ncc2ccc(-c3noc(C4(O)CCN(C(=O)OC(C)(C)C)CC4)n3)cc21` = 11.6

Please fill in: IC50 reported for COC(=O)N1CCC(c2noc(-c3ccc4cnn([C@H]5CCOC5)c4c3)n2)CC1 [Compound 878] = 0.005
